SYSTEM NAME: human CB2R (Homo sapiens)
Sequence (P34972 whole entry): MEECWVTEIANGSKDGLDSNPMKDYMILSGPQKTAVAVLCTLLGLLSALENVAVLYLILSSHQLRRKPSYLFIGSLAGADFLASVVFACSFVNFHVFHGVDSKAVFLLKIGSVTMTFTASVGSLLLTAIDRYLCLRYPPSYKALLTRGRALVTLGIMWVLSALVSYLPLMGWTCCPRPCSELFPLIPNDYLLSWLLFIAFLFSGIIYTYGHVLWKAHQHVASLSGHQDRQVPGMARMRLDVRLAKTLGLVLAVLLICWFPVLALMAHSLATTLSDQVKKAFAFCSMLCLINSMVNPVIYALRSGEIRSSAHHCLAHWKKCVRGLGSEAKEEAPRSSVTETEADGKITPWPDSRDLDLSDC
MEASUREMENT NOTES: CB2R mediated modulation of cAMP synthesis
Type: cell-based
QUANTITY NAME: EC50 (nM)
Give a bare numeral; the unit nM is implied.

> print(dat)
                         compound.structure  quantity.name  reported.result
1  CC(C)(C)c1cc(NC(=O)[C@@H]2CCC(=O)N2c2ncc(C(F)(F)F)cc2F)on1           EC50                5
2  CC(C)(C)c1cc(NC(=O)[C@@H]2CCC(=O)N2c2ccc(OC(F)(F)F)cc2)on1           EC50             34.5
3  CC(C)(C)c1cc(NC(=O)[C@@H]2CCC(=O)N2c2cc(F)c(F)c(F)c2)on1           EC50               80

Please turn your attention to the following entry.
Ask: # lookup: EC50 of CC(C)(C)c1cc(NC(=O)[C@@H]2CCC(=O)N2c2ccc(Cl)s2)on1
Result: 67.5
